assay.info: In vivo localization (biodistribution) in athymic female nude mice bearing intraperitoneal MCF-7 tumors
Parameters: species or system athymic female NCR-Nu Mice
test.context: mouse, in vivo, ip, Uteri, 48 hours, tail vein, intraperitoneal MCF-7, mean, n = 5; read-out: Percent Injected Dose/Gram, uteri
Experimental: In vivo localization of 11β-ethyl-17α-(Z)-[^125 I](iodovinyl)estra-3,17β-diol (5) and a control compound 16α-[^125 I]iodovinyl-3,17β-estradiol (commercially available from DuPont New England Nuclear, MA) was determined in athymic female NCR-Nu Mice (purchased from Simonsen Laboratories, Gilroy, Calif.) bearing subcutaneous MCF-7(ER+) breast tumor xenografts. […]
readout.name: tissue uptake at 48 h
Provide a numeric answer, followed by its unit.

Prompt: Can you share its tissue uptake at 48 h? I mean this compound: `CC[C@H]1C[C@@]2(C)[C@@H](CC[C@@]2(O)/C=C\[125I])[C@@H]2CCc3cc(O)ccc3[C@@H]12`
Response: 1.62 %ID/g
